Assignment: determine reported IC30 μM (Inhibition of EPO binding to EBP-Ig) for the given compounds.
system: EBP-Ig (N-terminal 225 amino acids of the human EPO receptor joined to an Ig heavy chain) (Homo sapiens)
Construct: Ig heavy chain (fusion partner); made in house; host or cells: NSO cells (secreted into conditioned media)
assay-details: Inhibition of [125I]EPO binding to immobilized EBP-Ig (EPO binding protein-Ig), scintillation Flash plate competition assay
condition-description: 0.5 nM [125I]EPO; 0–500 μM test compound
Procedure: The interaction of biotin and streptavidin is frequently employed to capture and effectively immobilize reagents useful in assay protocols and has been employed here as a simple method to capture and immobilize EBP-Ig. […] The amount of light produced was quantified to estimate the amount of ligand binding. […] All wells were adjusted to a final DMSO concentration of 5%. […] Corrected total binding (CTB) was calculated as: TB−NSB=CTB. […]
Give the value in µM but do not write µM after it.

Exercise: Value lookup for IC30 μM (Inhibition of EPO binding to EBP-Ig); key = O=C(O)CCC(C(=O)NCCOCCOCCNC(=O)C(CCC(=O)O)N(Cc1cccc(NC(=O)c2ccco2)c1)Cc1cccc(Oc2ccccc2)c1)N(Cc1cccc(NC(=O)c2ccco2)c1)Cc1cccc(Oc2ccccc2)c1 (stereo not drawn)
Solution: 7

Exercise: Which measured IC30 μM (Inhibition of EPO binding to EBP-Ig) value corresponds to COC(=O)C(CCCCN)N(Cc1ccc(OCc2ccccc2)cc1)Cc1cccc(NC(=O)c2ccc3ccccc3c2)c1 (stereo not drawn) ?
Solution: 6

Exercise: Which IC30 μM (Inhibition of EPO binding to EBP-Ig) reading was recorded for the compound O=C(O)CC(C(=O)NCCCOCCOCCOCCCNC(=O)C(CC(=O)O)N(Cc1ccc(OCc2ccccc2)cc1)Cc1ccc(OCc2ccccc2)cc1)N(Cc1ccc(OCc2ccccc2)cc1)Cc1ccc(OCc2ccccc2)cc1 (stereo not drawn) ?
Solution: 1

----------
system: EBP-Ig (N-terminal 225 amino acids of the human EPO receptor joined to an Ig heavy chain) (Homo sapiens, UniProt P19235)
Construct: Ig heavy chain (fusion partner); made in house; host or cells: NSO cells (secreted into conditioned media)
Sequence (P19235 25-250 limits assumed): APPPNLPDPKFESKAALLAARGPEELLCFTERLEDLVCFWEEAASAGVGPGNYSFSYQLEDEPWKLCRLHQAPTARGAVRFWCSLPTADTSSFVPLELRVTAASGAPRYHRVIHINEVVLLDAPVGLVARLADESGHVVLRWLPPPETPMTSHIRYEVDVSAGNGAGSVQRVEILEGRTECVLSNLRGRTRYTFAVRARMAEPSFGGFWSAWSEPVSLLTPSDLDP
assay-details: Inhibition of [125I]EPO binding to immobilized EBP-Ig (EPO binding protein-Ig), scintillation Flash plate competition assay
condition-description: Table 6; 50 μM
Please respond with reported EPO/EBP-Ig % inh @ 50 μM for every item in the list.
Express your answer in %, writing the number without its unit.

Exercise: Recorded EPO/EBP-Ig % inh @ 50 μM of COC(=O)C(CCC(=O)OC(C)(C)C)N(CC=Cc1cccc(Oc2ccccc2)c1)CC=Cc1cccc(Oc2ccccc2)c1 (stereo not drawn) [cpd 96] , please.
Solution: −5

Exercise: # get_value(readout='EPO/EBP-Ig % inh @ 50 μM', item= COC(=O)C(CCC(=O)OC(C)(C)C)N(C/C=C/c1cccc(Oc2ccc(Cl)c(Cl)c2)c1)C/C=C/c1cccc(Oc2ccc(Cl)c(Cl)c2)c1 (stereo not drawn) [compound 99] )
Solution: 13

Exercise: Can you share its EPO/EBP-Ig % inh @ 50 μM? I mean this compound: O=C(O)CC(C(=O)O)N(CC=Cc1cccc(Oc2ccccc2)c1)CC=Cc1cccc(Oc2ccccc2)c1 (stereo not drawn) [cpd 107, N,N-bis(3-Phenoxycinnamyl)Asp-OH]
Solution: 78

----------
system: EBP-Ig (N-terminal 225 amino acids of the human EPO receptor joined to an Ig heavy chain) (Homo sapiens)
Construct: Ig heavy chain (fusion partner); made in house; host or cells: NSO cells (secreted into conditioned media)
assay-details: Inhibition of [125I]EPO binding to immobilized EBP-Ig (EPO binding protein-Ig), scintillation Flash plate competition assay
condition-description: 50 μM test compound; 0.5 nM [125I]EPO; average % inhibition
Provide the reported % inh @ 50 μM (Inhibition of EPO binding to EBP-Ig) of each item.
Express the result in % but write the number alone.

Exercise: Look up % inh @ 50 μM (Inhibition of EPO binding to EBP-Ig) for this compound: O=C(O)CCC(=O)NCCCCC(C(=O)NCCCOCCCCOCCCNC(=O)C(CCCCNC(=O)CCC(=O)O)N(Cc1ccc(OCc2ccccc2)cc1)Cc1ccc(OCc2ccccc2)cc1)N(Cc1ccc(OCc2ccccc2)cc1)Cc1ccc(OCc2ccccc2)cc1 (stereo not drawn)
Solution: 65

Exercise: Suppose we examine the compound COC(=O)C(CCCCN)N(Cc1ccc(OCc2ccccc2)cc1)Cc1cccc(NC(=O)C(C)C)c1 (stereo not drawn) ; what % inh @ 50 μM (Inhibition of EPO binding to EBP-Ig) value has been reported?
Solution: 34

Exercise: I would be grateful if you could share the reported % inh @ 50 μM (Inhibition of EPO binding to EBP-Ig) for CC(C)(C)c1ccc(Oc2cccc(/C=C/CN(C/C=C/c3cccc(Oc4ccc(C(C)(C)C)cc4)c3)C(CCC(=O)O)C(=O)O)c2)cc1 (stereo not drawn) .
Solution: 78

----------
system: EBP-Ig (N-terminal 225 amino acids of the human EPO receptor joined to an Ig heavy chain) (Homo sapiens, UniProt P19235)
Construct: Ig heavy chain (fusion partner); made in house; host or cells: NSO cells (secreted into conditioned media)
assay-details: Inhibition of [125I]EPO binding to immobilized EBP-Ig (EPO binding protein-Ig), scintillation Flash plate competition assay
condition-description: 50 μM compound; Table 16A
observable: EPO/EBP-Ig % inh @ 50 μM
Give me the value, and tack the unit on after it.

Exercise: What measured EPO/EBP-Ig % inh @ 50 μM goes with COC(=O)C(COC(C)(C)C)N(CC=Cc1cccc(Oc2ccccc2)c1)CC=Cc1cccc(Oc2ccccc2)c1 (stereo not drawn) ?
Solution: 0%

Exercise: Reported EPO/EBP-Ig % inh @ 50 μM for CC(C)(C)OC[C@@H](C(=O)O)N(C/C=C/c1cccc(Oc2ccc(Cl)c(Cl)c2)c1)C/C=C/c1cccc(Oc2ccc(Cl)c(Cl)c2)c1 : what is it?
Solution: 30%

Exercise: Which EPO/EBP-Ig % inh @ 50 μM reading was recorded for the molecule CC(=O)O.COC(=O)[C@H](CO)N(C/C=C/c1cccc(Oc2ccc(Cl)c(Cl)c2)c1)C/C=C/c1cccc(Oc2ccc(Cl)c(Cl)c2)c1 ?
Solution: 0%

Exercise: Quick check: EPO/EBP-Ig % inh @ 50 μM of CC(C)(C)OC[C@@H](C(=O)O)N(C/C=C/c1ccc(-c2ccccc2)cc1)C/C=C/c1ccc(-c2ccccc2)cc1 ?
Solution: 25%

Exercise: Which EPO/EBP-Ig % inh @ 50 μM reading was recorded for the molecule CC(C)(C)c1ccc(Oc2cccc(/C=C/CN(C/C=C/c3cccc(Oc4ccc(C(C)(C)C)cc4)c3)[C@@H](CO)C(=O)O)c2)cc1.O=C(O)C(F)(F)F ?
Solution: 13%

Exercise: Name the recorded EPO/EBP-Ig % inh @ 50 μM for CC(=O)O.COC(=O)[C@H](CO)N(C/C=C/c1cccc(Oc2ccc(C(C)(C)C)cc2)c1)C/C=C/c1cccc(Oc2ccc(C(C)(C)C)cc2)c1 .
Solution: 1%

Exercise: What value of EPO/EBP-Ig % inh @ 50 μM has been reported for the following molecule? COC(=O)[C@H](COC(C)(C)C)N(C/C=C/c1ccc(-c2ccccc2)cc1)C/C=C/c1ccc(-c2ccccc2)cc1
Solution: 17%

Exercise: Look at this molecule and give its reported EPO/EBP-Ig % inh @ 50 μM. O=C(O)C(F)(F)F.O=C(O)[C@H](CO)N(C/C=C/c1cccc(Oc2cccc(C(F)(F)F)c2)c1)C/C=C/c1cccc(Oc2cccc(C(F)(F)F)c2)c1
Solution: 25%

Exercise: Suppose we examine the molecule COC(=O)[C@H](COC(C)(C)C)N(C/C=C/c1cccc(Oc2ccc(Cl)c(Cl)c2)c1)C/C=C/c1cccc(Oc2ccc(Cl)c(Cl)c2)c1 ; what EPO/EBP-Ig % inh @ 50 μM value has been reported?
Solution: 14%

Exercise: Field request: EPO/EBP-Ig % inh @ 50 μM | item: CC(C)(C)OC[C@@H](C(=O)O)N(C/C=C/c1cccc(Oc2cccc(C(F)(F)F)c2)c1)C/C=C/c1cccc(Oc2cccc(C(F)(F)F)c2)c1
Solution: 21%

Exercise: What value of EPO/EBP-Ig % inh @ 50 μM has been reported for the following molecule? O=C(O)C(F)(F)F.O=C(O)[C@H](CO)N(C/C=C/c1cccc(Oc2ccc(Cl)c(Cl)c2)c1)C/C=C/c1cccc(Oc2ccc(Cl)c(Cl)c2)c1
Solution: 25%

Exercise: Give its EPO/EBP-Ig % inh @ 50 μM value. Item: CC(=O)O.COC(=O)[C@H](CO)N(C/C=C/c1ccccc1)C/C=C/c1ccccc1
Solution: 34%
